assay: Cell cytotoxicity by WST method (EZ-Cytox) in TZM-bl cells; format: cell-based; settings: human, 2 days incubation
outcomeMeasure: CC50 at 2 days

• Cc1nc2ccccc2c(-c2ccc3c4c(ccnc24)CCO3)c1[C@H](OC(C)(C)C)C(=O)O = > 50 µM
• COc1cc2c(cc1Cc1cccc(Cl)c1F)c(=O)c(C(=O)O)cn2[C@H](CO)C(C)C = 26 µM
• C[C@@H]1CCO[C@H]2Cn3cc(C(=O)NCc4ccc(F)cc4F)c(=O)c(O)c3C(=O)N12 = > 50 µM

# input for lookup
What the record says about Cc1nnc(C(=O)NC(C)(C)c2nc(C(=O)NCc3ccc(F)cc3)c(O)c(=O)n2C)o1 : CC50 at 2 days is > 50 µM

----------
test system: HIV-1 AD8 strain; experiment: p24 ELISA antiviral activity in infected MT2 cells; conditions: Human immunodeficiency virus 1, MT2, 120 h
outcomeMeasure: EC50 (pM)
Return type: number; implicit unit pM.

* Cc1nc2ccccc2c(-c2ccc3c4c(ccnc24)CCO3)c1[C@H](OC(C)(C)C)C(=O)O [BI 224436] | 28700

Documented EC50 of Cc1nnc(C(=O)NC(C)(C)c2nc(C(=O)NCc3ccc(F)cc3)c(O)c(=O)n2C)o1 [RAL, Raltegravir] : 580

----------
experiment: Cell cytotoxicity by WST method (EZ-Cytox) in MT2 cells; assay type: cell-based; details: human, 5 days incubation
Overview of recorded CC50 at 5 days for various compounds
Give the number; nM is assumed, so skip it.

* COc1cc2c(cc1Cc1cccc(Cl)c1F)c(=O)c(C(=O)O)cn2[C@H](CO)C(C)C [EVG, Elvitegravir] | 1260
* C[C@@H]1CCO[C@H]2Cn3cc(C(=O)NCc4ccc(F)cc4F)c(=O)c(O)c3C(=O)N12 [DTG, Dolutegravir] | 1740

Now take the following compound into account.
Record Cc1nnc(C(=O)NC(C)(C)c2nc(C(=O)NCc3ccc(F)cc3)c(O)c(=O)n2C)o1 [RAL, Raltegravir] . Reported CC50 at 5 days: 6420

Source of measurements: paper PMC7805210
